assaySystem: SARS-CoV-2 spike protein on pseudotyped lentivirus (Wuhan Reference Pseudovirus) (SARS-CoV-2, UniProt P0DTC2 14-1273)
method: cell-based or functional assay
Kindly apply the following: Criterion met if infectivity % under 10 ug/mL VHH treatment is less than 80%, Criterion not met in every other case.

[
  {
    "binder": "PP915 MBP-5HVZ-S3b-A7-H6 (VHH, Form: Dimer) VHH: QVQLVESGGGLVQPGGSLRLSCAASGSIASINAIHWVRQAPGKQREEVAAITSGGSTGYADSVKGRFTISRDNAKNTVYLQMNSLKPEDTAVYYCAAQPGQSYAVWGQGTQVTVSS",
    "discreteLabel": "Criterion not met"
  },
  {
    "binder": "PP1158 MPB-scTRP-PAPA-R2d-D3-H6 (VHH, Form: Trimer) VHH: QVQLVESGGGLVQPGGSLRLSCAASGHIFSINNAAWVRQAPGKSREGVATIHSGGGTYYSDSVKGRFTISRDNAKNTVYLQMNSLKPEDTAVYYCNAEVSTGAGSRGRVSDVYWGQGTQVTVSS",
    "discreteLabel": "Criterion met"
  },
  {
    "binder": "PP1099 MBP-5HVZ-PAPA-RN-12-H6 (VHH, Form: Dimer) VHH: QVQLVESGGGLVQPGGSLRLSCAASGSSFEGNAVHWFRQAPGKNREFVATITTSTSYYYADSVKGRFTISRDNAKNTVYLQMNSLKPEDTAVYYCAARLKDRGPQSEYDYWGQGTQVTVSS",
    "discreteLabel": "Criterion met"
  },
  {
    "binder": "PP807 MBP-R2C-B3-H6 (VHH, Form: Monomer) VHH: QVQLVESGGGLVQPGGSLRLSCAASGTYASYETIAWYRQAPGKQREKVARITGAGSSFYADSVKGRFTISRDNAKNTVYLQMNSLKPEDTAVYYCNADSIPPALRAANTGYWGQGTQVTVSS",
    "discreteLabel": "Criterion met"
  },
  {
    "binder": "PP1148 MBP-5HVZ-PAPA-R5a-C5-H6 (VHH, Form: Dimer) VHH: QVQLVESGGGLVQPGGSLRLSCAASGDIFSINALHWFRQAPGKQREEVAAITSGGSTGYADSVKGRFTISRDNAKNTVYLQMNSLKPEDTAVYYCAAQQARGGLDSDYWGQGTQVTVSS",
    "discreteLabel": "Criterion met"
  }
]

Moving on to the next binder.
QUERY: Here's an entry: PP1095 MBP-5HVZ-PAPA-RN-2-H6 (VHH) VHH: QVQLVESGGGLVQPGGSLRLSCAASGSYFSKNAVHWYRQAPGKGREWVAALTNSGSGNYKDSVKGRFTISRDNAKNTVYLQMNSLKPEDTAVYYCTANISESTGQGYDYWGQGTQVTVSS . Is its infectivity % under 10 ug/mL VHH treatment below 80%?
RESULT: Criterion met

Cited source: patent US20240150440A1
